Attribution: the supplement of paper PMC13380429

Tested on: Vero E6 infected with SARS-CoV-2
procedure_summary: morphology score (similarity to uninfected cells); higher = more like uninfected cells
details: 24 h
measured_quantity: morphology score
Reply with the value as a number alone.

compound	readout_value
CCC1(c2c[nH]cn2)Cc2ccccc2C1 [atipamezole] (10 µM)	-0.114
CCCNCC(O)COc1ccccc1C(=O)CCc1ccccc1 (centres undefined) [propafenone] (0.833333 µM)	-0.109
C[n+]1ccc(C(=O)NCc2ccccc2)cc1 [enisamium-iodide] (10 µM)	0.172

Req: Looking for the measured morphology score of CCCOc1ccc(Br)cc1-c1cc(-c2ccc(Cl)cc2)[nH]c1-c1ccncc1 (10 µM) , can you help?
Resp: 0.113

Req: Look at this compound and give its reported morphology score. O=C(O)CCCCCCNC1c2ccccc2CCc2ccccc21 [amineptine] (10 µM)
Resp: 0.118

Req: Tell me the measured morphology score of CO/N=C(\C(=O)N[C@@H]1C(=O)N2C(C(=O)O)=C(CSc3nc(=O)c(O)nn3C)CS[C@H]12)c1csc(N)n1 [ceftriaxone] (10 µM) , please.
Resp: -0.108

Req: Param item = O=C(O)CCCCC(=O)O [adipic-acid] (10 µM) ; retrieve measured morphology score.
Resp: -0.0456

Req: Which value of morphology score has been reported for CCn1c(-c2nonc2N)nc2cncc(CNC3CCNCC3)c21 (10 µM) in the records?
Resp: 0.371

Req: Requested read-out: morphology score. Entry: CN1CCC[C@@H]1Cc1c[nH]c2ccc(CCS(=O)(=O)c3ccccc3)cc12 [eletriptan] (10 µM)
Resp: 0.207

* * *

Tested on: Vero E6 infected with SARS-CoV-2
procedure_summary: morphology score (similarity to uninfected cells); higher = more like uninfected cells
details: 24 h
Reported morphology score is given for each of the following molecules.

Example cases with answers are listed next.
molecule	morphology score
CCCC(=O)Nc1cccc(NC(=O)c2ccccc2Br)c1 (10 µM)	-0.131
C(#CCN1CCCC1)CN1CCCC1 [tremorine] (10 µM)	0.107
Cn1nnc(-c2ccc(-c3ccc(N4C[C@H](COP(=O)(O)O)OC4=O)cc3F)cn2)n1 [tedizolid-phosphate] (10 µM)	0.194
CS(=O)(=O)c1ccc(Cn2c3c(c4cc(F)cc(F)c42)CCCC3CC(=O)O)cc1 (centres undefined) (10 µM)	0.144
Cc1nc2ccccn2c(=O)c1CCN1CCC(C(=O)c2ccc(F)cc2)CC1 [pirenperone] (10 µM)	0.172

Req: # value lookup — system Vero E6 infected with SARS-CoV-2, readout morphology score, item NCCNC(=O)c1ccc(Cl)cn1 [lazabemide] (10 µM)
Resp: 0.0341

Req: Item CC(=O)CC(c1ccccc1)c1c(O)c2ccccc2oc1=O (centres undefined) [warfarin] (10 µM) with Vero E6 infected with SARS-CoV-2 - morphology score?
Resp: -0.0329

Req: Which measured morphology score belongs to Nc1n[nH]c2nc3ccccc3nc12 [CDK1-5-inhibitor] (10 µM) , tested on Vero E6 infected with SARS-CoV-2?
Resp: -0.113

Req: // map Cc1sc(C)c(C(=O)NC2(c3ccc(C(=O)O)cc3)CC2)c1Cc1ccc(C(F)(F)F)cc1 (10 µM) to recorded morphology score (system: Vero E6 infected with SARS-CoV-2)
Resp: 0.187

* * *

Tested on: Vero E6 infected with SARS-CoV-2
procedure_summary: inhibition of SARS-CoV-2 cytopathic effect; higher = more antiviral protection, active = above 15
details: 10000 nM; 48 h
Respond only with the outcome that fits, drawn from active, inactive

For orientation, consider the following solved cases.
compound	class_label
CCCCCN(C)CCC(O)(P(=O)(O)O)P(=O)(O)O [ibandronate]	inactive
CCOc1ccc(NC(C)=O)cc1 [phenacetin]	inactive
CNC(=O)[C@H]1O[C@@H](n2cnc3c(NCc4cccc(I)c4)nc(Cl)nc32)[C@H](O)[C@@H]1O	inactive
COc1cc(CNC(=O)CCCC/C=C/C(C)C)ccc1O [capsaicin]	inactive

Req: Field: outcome | Entry: C=C[C@]1(C)C[C@@H](OC(=O)CSC(C)(C)CNC(=O)[C@H](N)C(C)C)[C@]2(C)[C@H](C)CC[C@]3(CCC(=O)[C@H]32)[C@@H](C)[C@@H]1O [valnemulin]
Resp: inactive

Req: Test call, this compound: CCCCNc1nc(N)c2[nH]c(=O)n(Cc3ccc(OCCN(C)C)nc3)c2n1
Resp: inactive

Req: Tell me the assay call for Cn1cc(C2=C(c3ccc(Cl)cc3Cl)C(=O)NC2=O)c2ccccc21 please.
Resp: active

Req: For this compound, state the assay outcome: NCCCCCc1c[nH]cn1 [impentamine]
Resp: inactive

Req: What did this assay record as the result for CCOc1cc2ncc(C#N)c(Nc3ccc(OCc4cccc(F)c4)c(Cl)c3)c2cc1NC(=O)/C=C/CN(C)C ?
Resp: inactive

* * *

System: Vero E6 infected with SARS-CoV-2
procedure_summary: inhibition of SARS-CoV-2 cytopathic effect; higher = more antiviral protection, active = above 15
details: 8.33 nM; 48 h
measured_quantity: inhibition of SARS-CoV-2 cytopathic effect (%)
State the answer as a number, implicitly in %.

Please review the following examples before continuing.
chemical_smiles	readout_value
N[C@@H]1CCCN(c2c(/C=C3\SC(=O)NC3=O)cccc2-c2ccccc2)C1	-3.14
Cc1cn([C@@H]2C[C@@H](O)[C@H](CO)O2)c(=O)[nH]c1=O	-1.65
COC(=O)Nc1ccc(-c2nc(N3CCOCC3)c3cnn(C4CCN(C(=O)OC)CC4)c3n2)cc1	1.76

Shift focus to the following entry.
Req: # get_value(readout='inhibition of SARS-CoV-2 cytopathic effect', item= CCOc1nc2cccc(C(=O)OCc3oc(=O)oc3C)c2n1Cc1ccc(-c2ccccc2-c2noc(=O)[nH]2)cc1 )
Resp: 1.14

* * *

System: Vero E6 infected with SARS-CoV-2
procedure_summary: SARS-CoV-2 infection rate relative to infected DMSO; higher = more infection, active = 60 or less
details: 24 h
measured_quantity: SARS-CoV-2 infection rate (%)
Field format: number, assumed %, no unit text.

molecule	SARS-CoV-2 infection rate [%]
Cc1ccc(NC(=O)C2(c3ccc4c(c3)OC(F)(F)O4)CC2)nc1-c1cccc(C(=O)O)c1 [lumacaftor] (10 µM)	114
Cn1c(NC[C@@H](N)Cc2ccccc2)nc(-c2ccncc2)c(-c2ccc3ccccc3c2)c1=O (10 µM)	35
O=C(NO)c1cnc(N2CCN(S(=O)(=O)c3ccc4ccccc4c3)CC2)nc1 (10 µM)	115
CCCCNC(=O)[C@@H]1Cc2ccccc2N1C(=O)[C@@H](N)CC [butabindide] (10 µM)	86.5
Cc1cnc(C(=O)O)c[n+]1[O-] [acipimox] (10 µM)	108

Req: Need SARS-CoV-2 infection rate, item C[C@@]1(F)[C@H](O)[C@@H](CO)O[C@H]1n1ccc(N)nc1=O (10 µM)
Resp: 104

Req: Field request: SARS-CoV-2 infection rate | item: O=C(NCC1CCCCN1)c1cc(OCC(F)(F)F)ccc1OCC(F)(F)F (stereo not drawn) [flecainide] (10 µM)
Resp: 87.5

Req: State the recorded SARS-CoV-2 infection rate for this entry: CC1(C)CC(Oc2ccc(-c3ccc(-c4cn[nH]c4)cc3O)nn2)CC(C)(C)N1 (10 µM)
Resp: 120

* * *

Tested on: Vero E6 infected with SARS-CoV-2
procedure_summary: inhibition of SARS-CoV-2 cytopathic effect; higher = more antiviral protection, active = above 15
details: 100 nM; 48 h
measured_quantity: inhibition of SARS-CoV-2 cytopathic effect (%)
Quick note: give the figure in %, leave out the unit.

compound	readout_value
CC(C)(S)C(N)C(=O)O (stereo in doubt) [penicillamine-(racemic)]	-0.335
NC(=O)c1ccc2[nH]ccc2c1	0.99
O=C(NCCO)c1cccc(-c2cc(Nc3ccc(OC(F)(F)F)cc3)ncn2)c1	2.91
CC(=O)OC[C@H]1O[C@@H]([S-])[C@H](OC(C)=O)[C@@H](OC(C)=O)[C@@H]1OC(C)=O.CCP(CC)CC.[Au+]	7.71
O=C(c1cccc(Cl)c1F)N1CCN(Cc2cccc(Nc3nccs3)n2)CC1	0.91

Req: Value wanted: inhibition of SARS-CoV-2 cytopathic effect (Vero E6 infected with SARS-CoV-2) of entry CN(c1ccccc1CNc1nc(Nc2ccc3c(c2)CC(=O)N3)ncc1C(F)(F)F)S(C)(=O)=O
Resp: -2.19

Req: Form entry - test system: Vero E6 infected with SARS-CoV-2; read-out: inhibition of SARS-CoV-2 cytopathic effect; compound: Oc1ccc([C@@H]2Oc3ccc(O)cc3[C@@H]3CCC[C@@H]32)cc1
Resp: -1.51

Req: Please state recorded inhibition of SARS-CoV-2 cytopathic effect (tested on Vero E6 infected with SARS-CoV-2) of C[C@]12CC[C@H](O)C[C@H]1CC[C@@H]1[C@@H]2CC[C@]2(C)[C@@H](c3ccc(=O)oc3)C[C@H]3O[C@]132
Resp: -5.86
